Cited source for all entries: PubChem BioAssay

# PROCEDURE_DETAILS: probe aCHRDL2 binding to arrayed compounds – biochemical, biotinylated probe, 635/667 nm fluorescence, primary screen (AID 1100)
# CONDITION_SET: small-molecule microarray, higher = more signal
VALUE_TYPE: composite z-score

compound=COC(=O)C(CC#Cc1ccc2c(c1)[C@]1(C(=O)N2)[C@H](c2ccccc2OCCO)N2[C@H](c3ccccc3)[C@H](c3ccccc3)OC(=O)[C@H]2[C@@H]1C(=O)Nc1nc2ccccc2s1)C(=O)OC endpoint_result=-0.0159
compound="OCCCC1=CC(c2cccs2)N(Cc2cccc(OC(F)(F)F)c2)CC1 (stereo not drawn)" endpoint_result=-0.138
compound="CCOc1cc(C(O)C2C=CC3C(=O)NC(=O)C3N2Nc2ccccn2)ccc1O (stereo not drawn)" endpoint_result=-0.0156
compound=CCCC[C@H]1OB(O)C[C@H]2C1=C(COc1ccccc1)Cn1c(=O)n(-c3ccccc3)c(=O)n12 endpoint_result=-0.387
compound="CN1C(=O)C2C=CC(C(O)c3ccc(F)cc3)N(N3CCCCC3)C2C1=O (stereo not drawn)" endpoint_result=1.33
compound="C[C@]12C(=O)N(CCCO)[C@@H]3C(=O)N(c4ccc(Cl)cc4)CC=CC31O[C@@H]1/C=C\\CCCOC(=O)C12 (stereo partly drawn)" endpoint_result=0.62
compound=CO[C@H]1O[C@H](CO)[C@@H](OC(=O)c2ccc(Br)cc2)[C@@H]2OC(=O)[C@H](Cc3cccc(Br)c3)C/C=C/C[C@@H](Cc3cccc(Br)c3)C(=O)O[C@@H]12 endpoint_result=0.78
compound="C[C@]12C(=O)N(CCCCCO)[C@@H]3C(=O)N(c4ccc(Cl)cc4)CC=CC31O[C@@H]1/C=C\\CCCOC(=O)C12 (stereo partly drawn)" endpoint_result=0.557
